Data credit: ChEMBL document CHEMBL5543097

Assay: Metabolic stability in human liver microsome assessed as intrinsic clearance measured at 60 mins by LC-MS/MS analysis
Format: ADME
Conditions: liver microsomes, read-out: CLH
Parameter measured: log10(microsomal CLint) (log10 of the value in µL/min/mg)
// stored as log10 of microsomal CLint expressed in µL/min/mg

Fill in: log10(microsomal CLint) of CC[C@H]1OC(=O)[C@@](C)(F)C(=O)[C@H](C)[C@@H](O[C@@H]2O[C@H](C)C[C@H](N(C)C)[C@H]2O)[C@](C)(OC)C[C@@H](C)C(=O)[C@H](C)[C@H]2N(CCCOC(=O)Nc3c(C)noc3C)C(=O)O[C@]12C is ___
1.57

Looking for the measured log10(microsomal CLint) of CC[C@H]1OC(=O)[C@@](C)(F)C(=O)[C@H](C)[C@@H](O[C@@H]2O[C@H](C)C[C@H](N(C)C)[C@H]2O)[C@](C)(OC)C[C@@H](C)C(=O)[C@H](C)[C@H]2N(CCCOC(=O)Nc3cccc(C)c3)C(=O)O[C@]12C , can you help?
2.42

Field request: log10(microsomal CLint) | item: CC[C@H]1OC(=O)[C@@](C)(F)C(=O)[C@H](C)[C@@H](O[C@@H]2O[C@H](C)C[C@H](N(C)C)[C@H]2O)[C@](C)(OC)C[C@@H](C)C(=O)[C@H](C)[C@H]2N(CCCOC(=O)Nc3ccc4c(c3)CCO4)C(=O)O[C@]12C
2.53

Can you share its log10(microsomal CLint)? I mean this compound: CC[C@H]1OC(=O)[C@@](C)(F)C(=O)[C@H](C)[C@@H](O[C@@H]2O[C@H](C)C[C@H](N(C)C)[C@H]2O)[C@](C)(OC)C[C@@H](C)C(=O)[C@H](C)[C@H]2N(CCCOC(=O)Nc3ccc(F)cc3)C(=O)O[C@]12C
2.26

Quick check: log10(microsomal CLint) of CC[C@H]1OC(=O)[C@@](C)(F)C(=O)[C@H](C)[C@@H](O[C@@H]2O[C@H](C)C[C@H](N(C)C)[C@H]2O)[C@](C)(OC)C[C@@H](C)C(=O)[C@H](C)[C@H]2N(CCCOC(=O)Nc3ccccc3C)C(=O)O[C@]12C ?
0.60

###

Tested on: Moraxella catarrhalis
Test: Antibacterial activity against Moraxella catarrhalis BCA 19-6 assessed as inhibition of bacterial growth incubated for 24 hrs by CLSI based broth microdilution method
Type: functional
Details: Moraxella catarrhalis, BCA 19-6, 24 h, read-out: MIC
So basically, if MIC comes in under 0.2 µg/mL it's true, and if it's 0.2 µg/mL or more it's false.

Strictly below 0.2 µg/mL in MIC? CC[C@H]1OC(=O)[C@@](C)(F)C(=O)[C@H](C)[C@@H](O[C@@H]2O[C@H](C)C[C@H](N(C)C)[C@H]2O)[C@](C)(OC)C[C@@H](C)C(=O)[C@H](C)[C@H]2N(CCCOC(=O)Nc3cccc(F)c3)C(=O)O[C@]12C
true

Answer whether the compound CC[C@H]1OC(=O)[C@H](C)C(=O)[C@H](C)[C@@H](O[C@@H]2O[C@H](C)C[C@H](N(C)C)[C@H]2O)[C@](C)(OC)C[C@@H](C)C(=O)[C@H](C)[C@H]2N(CCCCn3cnc(-c4cccnc4)c3)C(=O)O[C@]12C [TELITHROMYCIN] has MIC strictly less than 0.2 µg/mL
false

For CC[C@H]1OC(=O)[C@@](C)(F)C(=O)[C@H](C)[C@@H](O[C@@H]2O[C@H](C)C[C@H](N(C)C)[C@H]2O)[C@](C)(OC)C[C@@H](C)C(=O)[C@H](C)[C@H]2N(CCCOC(=O)Nc3cccs3)C(=O)O[C@]12C , is the recorded MIC below the cut-off of 0.2 µg/mL?
false

Field: below-cutoff. Rule: recorded MIC strictly less than 0.2 µg/mL. Subject: CC[C@H]1OC(=O)[C@@](C)(F)C(=O)[C@H](C)[C@@H](O[C@@H]2O[C@H](C)C[C@H](N(C)C)[C@H]2O)[C@](C)(OC)C[C@@H](C)C(=O)[C@H](C)[C@H]2N(CCCOC(=O)Nc3ccc(Cl)cc3C)C(=O)O[C@]12C
false

Hi there! Is MIC for CC[C@H]1OC(=O)[C@@](C)(F)C(=O)[C@H](C)[C@@H](O[C@@H]2O[C@H](C)C[C@H](N(C)C)[C@H]2O)[C@](C)(OC)C[C@@H](C)C(=O)[C@H](C)[C@H]2N(CCCOC(=O)Nc3cccc(C)c3C)C(=O)O[C@]12C below 0.2 µg/mL, do you know?
true

Say whether its MIC is strictly beneath 0.2 µg/mL. Entry: CC[C@H]1OC(=O)[C@H](C)[C@@H](O[C@H]2C[C@@](C)(OC)[C@@H](O)[C@H](C)O2)[C@H](C)[C@@H](O[C@@H]2O[C@H](C)C[C@H](N(C)C)[C@H]2O)[C@](C)(OC)C[C@@H](C)C(=O)[C@H](C)[C@@H](O)[C@]1(C)O [CLARITHROMYCIN]
false

Given CC[C@H]1OC(=O)[C@@](C)(F)C(=O)[C@H](C)[C@@H](O[C@@H]2O[C@H](C)C[C@H](N(C)C)[C@H]2O)[C@](C)(OC)C[C@@H](C)C(=O)[C@H](C)[C@H]2N(CCCOC(=O)Nc3ccccc3[N+](=O)[O-])C(=O)O[C@]12C , is recorded MIC strictly lower than 0.2 µg/mL?
false

In plain terms, does CC[C@H]1OC(=O)[C@@](C)(F)C(=O)[C@H](C)[C@@H](O[C@@H]2O[C@H](C)C[C@H](N(C)C)[C@H]2O)[C@](C)(OC)C[C@@H](C)C(=O)[C@H](C)[C@H]2N(CCCOC(=O)Nc3cccc(C(F)(F)F)c3)C(=O)O[C@]12C come in under 0.2 µg/mL for MIC?
false
